- TEST_DESCRIPTION: Metabolic Stability assay, rat liver microsomes
- Assay type: in vitro ADME
- ASSAY_CONTEXT: read-out: LM T1/2 (min) rat
Label rule, in plain words: half-life at 1 μM of 10 min and up is Met, under 10 min is Not met.

Reference set, count: 7
compound="CCc1ccccc1-c1ccc(C2CCN(C(=O)c3ccc(C)cn3)C2)c(CO)c1 (centres unmarked)" answer_label="Not met"
compound="CC(C)c1ccccc1Oc1ccc(C2CCN(C(=O)c3ccc(F)cn3)C2)c(CO)c1 (centres unmarked)" answer_label="Not met"
compound="CC(C)c1ccccc1Oc1ccc(C2CCN(C(=O)Cc3ccccn3)C2)c(CO)c1 (centres unmarked)" answer_label="Not met"
compound="O=C(c1cccc(Cl)n1)N1CCC(c2ccc(-c3ccccc3C3CC3)cc2CO)C1 (centres unmarked)" answer_label=Met
compound="CCc1ccccc1-c1ccc(C2CCN(C(=O)c3ccccn3)C2)c(CO)c1 (centres unmarked)" answer_label=Met
compound="CCc1cc(C)ccc1-c1ccc(C2CCN(C(=O)c3ccc(Cl)cn3)C2)c(CO)c1 (centres unmarked)" answer_label=Met
compound="CCc1ccccc1-c1ccc(C2CCN(C(=O)c3ccc(F)cn3)C2)c(CO)c1 (centres unmarked)" answer_label=Met

Continue with the compound presented below.
# input Does half-life at 1 μM meet or surpass 10 min for CCc1ccccc1-c1ccc(C2CCN(C(=O)c3ccc(F)cn3)C2)c(C(N)=O)c1 (centres unmarked) ?
# output Met
